B1: LINE1-full (parent)
chain: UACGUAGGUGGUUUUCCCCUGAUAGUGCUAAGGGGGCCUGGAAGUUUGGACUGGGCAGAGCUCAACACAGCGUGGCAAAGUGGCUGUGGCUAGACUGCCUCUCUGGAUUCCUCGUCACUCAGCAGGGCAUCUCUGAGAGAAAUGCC

Variants of: B1
METHOD SUMMARY: self-cleavage, relative activity (ratio to wild type); higher = more cleavage; in vitro, sequencing; the parent is a self-cleaving ribozyme
Could you please report measured self-cleavage for the items listed next?

MUTATION STRING	self-cleavage
G54A U143A	0.45
U45A U119A	1.44
U81A U119C	2.53
G49U A92G	0.04
A92G C131G	0.22

Give self-cleavage for each listed item.
1. U91C C95A
2. G4A G75A
3. G93A U119C
4. U13A A142G
5. U29A U132C
6. U29C A121U

Found:
1: 0.08; 2: 0.87; 3: 0.04; 4: 1.2; 5: 0.59; 6: 1.5

Give self-cleavage for each listed item.
1. A121G A140G
2. A79G G93A
3. G72A G135U

Found:
1. 1.84
2. 0.04
3. 1.2
